# Assay Remarks: In vivo pharmacokinetic study in male ICR mice (compound alone)
# Condition Description: male, ICR, mouse, plasma, iv, 2 mg/kg, IV 2 mg/kg, individual mice 1-3; read-out: AUCINF_pred
Measured Parameter: AUC(0-inf) (ng·h/mL)
# unit: ng·h/mL | format: bare number

**Query** Tell me the measured AUC(0-inf) of Cc1cncc(C(=O)N2C[C@H]3CC[C@@H](C2)N3[C@H](c2cccc(F)c2)c2cn(CCc3ccsc3)nn2)c1 [Compound C5N17B] , please.
**Result** 80.7

----------
# Assay Remarks: In vivo pharmacokinetic study in male ICR mice (compound alone)
# Condition Description: male, ICR, mouse, plasma, po, 10 mg/kg, PO 10 mg/kg, 4 h, mean of mice 4#-6#; read-out: plasma concentration, Mean
# Protocol: The pharmacokinetics profile of the newly developed antiviral compound C5N17B was subsequently evaluated in male ICR mice that were free from specific pathogens, aiming to assess its potential for therapeutic application in vivo. A total of six male ICR mice were randomly assigned to two groups. […] All samples were quantified using an LC‐MS/MS‐AR Triple Quad 5500+ (SCIEX, USA) and the ExionLC liquid phase system. […] The pharmacokinetic parameters were calculated by WinNolin 8.2 software.
Measured Parameter: concentration at 4 h

**Query** Tell me the measured concentration at 4 h of Cc1cncc(C(=O)N2C[C@H]3CC[C@@H](C2)N3[C@H](c2cccc(F)c2)c2cn(CCc3ccsc3)nn2)c1 [Compound C5N17B] , please.
**Result** 5.98 ng/mL

----------
# Experimental Target: SARS‐CoV‐2 M^pro (Severe acute respiratory syndrome coronavirus 2, UniProt P0DTD1)
# Assay Remarks: SARS‐CoV‐2 main protease enzymatic assay (FRET inhibitor screening kit)
# Format: biochemical
Measured Parameter: inhibition of M^pro enzymatic activity, first round of screening (%)
# unit: % | format: bare number

A selection of reference data follows.
Molecule: COC(=O)CCCn1cc(C(c2cccc(F)c2)N2[C@@H]3CC[C@H]2CN(C(=O)c2cncc(C)c2)C3)nn1 (stereo partly drawn)
Experimental Target: SARS‐CoV‐2 M^pro (Severe acute respiratory syndrome coronavirus 2, UniProt P0DTD1)
Result Units: %
Value Reported: 96

Molecule: Cc1cncc(C(=O)N2C[C@H]3CC[C@@H](C2)N3C(c2cccc(F)c2)c2cn(Cc3ccc([N+](=O)[O-])cc3)nn2)c1 (stereo partly drawn)
Experimental Target: SARS‐CoV‐2 M^pro (Severe acute respiratory syndrome coronavirus 2, UniProt P0DTD1)
Result Units: %
Value Reported: 88

Molecule: Cc1cncc(C(=O)N2C[C@H]3CC[C@@H](C2)N3C(c2cccc(F)c2)c2cn(Cc3ccc(S(C)(=O)=O)cc3)nn2)c1 (stereo partly drawn)
Experimental Target: SARS‐CoV‐2 M^pro (Severe acute respiratory syndrome coronavirus 2, UniProt P0DTD1)
Result Units: %
Value Reported: 90

Molecule: O=C(c1cccnc1)N1CCN(C(c2cccc(F)c2)c2cn(CCc3ccsc3)nn2)CC1 (stereo not drawn)
Experimental Target: SARS‐CoV‐2 M^pro (Severe acute respiratory syndrome coronavirus 2, UniProt P0DTD1)
Result Units: %
Value Reported: 86

Molecule: Cc1cncc(C(=O)N2C[C@H]3CC[C@@H](C2)N3C(c2cccc(F)c2)c2cn(Cc3cccc(F)c3)nn2)c1 (stereo partly drawn)
Experimental Target: SARS‐CoV‐2 M^pro (Severe acute respiratory syndrome coronavirus 2, UniProt P0DTD1)
Result Units: %
Value Reported: 93

Let us examine a further case.
**Query** Tell me the measured inhibition of M^pro enzymatic activity, first round of screening of Cc1cncc(C(=O)N2C[C@H]3CC[C@@H](C2)N3C(c2cccc(F)c2)c2cn(Cc3cccc([N+](=O)[O-])c3)nn2)c1 (stereo partly drawn) , please.
**Result** 93

----------
# Assay Remarks: in vivo
# Condition Description: male, ICR, mouse, po, 10 mg/kg, Cmax, C5N17B+Ritonavir, PO 10 mg/kg, individual mice 1#-3#
Measured Parameter: Cmax (ng/mL)
# unit: ng/mL | format: bare number

**Query** Tell me the measured Cmax of Cc1cncc(C(=O)N2C[C@H]3CC[C@@H](C2)N3[C@H](c2cccc(F)c2)c2cn(CCc3ccsc3)nn2)c1 [Compound C5N17B] , please.
**Result** 2270

----------
# Assay Remarks: In vivo pharmacokinetic study in male ICR mice (compound alone)
# Condition Description: male, ICR, mouse, plasma, po, 10 mg/kg, p.o. 10 mg kg^−1, male ICR mice, n = 3; read-out: AUC0‐∞, p.o.
Measured Parameter: AUC (ng·h/mL)
# unit: ng·h/mL | format: bare number

**Query** Tell me the measured AUC of Cc1cncc(C(=O)N2C[C@H]3CC[C@@H](C2)N3[C@H](c2cccc(F)c2)c2cn(CCc3ccsc3)nn2)c1 [Compound C5N17B] , please.
**Result** 71.9

----------
# Assay Remarks: in vivo
# Condition Description: ICR, mouse, po, 10 mg/kg, Cmax, p.o. in combination with ritonavir, p.o. 10 mg kg^−1 with 20 mg kg^−1 ritonavir, ICR mice, n = 3
# Cmax per record follows
# unit: ng/mL | format: bare number

Compound: CC(C)(C)[C@H](NC(=O)C(F)(F)F)C(=O)N1C[C@H]2[C@@H]([C@H]1C(=O)N[C@H](C#N)C[C@@H]1CCNC1=O)C2(C)C [Nirmatrelvir, reference compound]
Result Units: ng/mL
Cmax: 7450

**Query** Tell me the measured Cmax of Cc1cncc(C(=O)N2C[C@H]3CC[C@@H](C2)N3[C@H](c2cccc(F)c2)c2cn(CCc3ccsc3)nn2)c1 [Compound C5N17B] , please.
**Result** 2300

----------
# Assay Remarks: In vivo pharmacokinetic study in male ICR mice (compound alone)
# Condition Description: male, ICR, mouse, plasma, po, 10 mg/kg, PO 10 mg/kg, individual mice 4-6; read-out: AUCINF_obs
Measured Parameter: AUC(0-inf) (µg·h/mL)
# unit: µg·h/mL | format: bare number

**Query** Tell me the measured AUC(0-inf) of Cc1cncc(C(=O)N2C[C@H]3CC[C@@H](C2)N3[C@H](c2cccc(F)c2)c2cn(CCc3ccsc3)nn2)c1 [Compound C5N17B] , please.
**Result** 0.0596

----------
# Assay Remarks: In vivo pharmacokinetic study in male ICR mice (compound alone)
# Condition Description: male, ICR, mouse, plasma, iv, 2 mg/kg, IV 2 mg/kg, individual mice 1-3; read-out: MRTINF_pred
Measured Parameter: MRT inf

**Query** Tell me the measured MRT inf of Cc1cncc(C(=O)N2C[C@H]3CC[C@@H](C2)N3[C@H](c2cccc(F)c2)c2cn(CCc3ccsc3)nn2)c1 [Compound C5N17B] , please.
**Result** 6.45 min

----------
# Experimental Target: SARS‐CoV‐2 M^pro (Severe acute respiratory syndrome coronavirus 2, UniProt P0DTD1)
Measured Parameter: pKi
Lab note: report pKi as minus log10 of the concentration in molar units, number only.

**Query** Tell me the measured pKi of Cc1cncc(C(=O)N2C[C@H]3CC[C@@H](C2)N3[C@H](c2cccc(F)c2)c2cn(CCc3ccsc3)nn2)c1 [Compound C5N17B] , please.
**Result** 7.58

----------
# CC50 per record follows
# Assay Remarks: in vitro
# Condition Description: rhesus monkey

Molecule: CC(C)(C)[C@H](NC(=O)C(F)(F)F)C(=O)N1C[C@H]2[C@@H]([C@H]1C(=O)N[C@H](C#N)C[C@@H]1CCNC1=O)C2(C)C [Nirmatrelvir, reference compound]
Measured Parameter: CC50
Value Reported: > 100 µM

Let us examine a further case.
**Query** Tell me the measured CC50 of Cc1cncc(C(=O)N2C[C@H]3CC[C@@H](C2)N3[C@H](c2cccc(F)c2)c2cn(CCc3ccsc3)nn2)c1 [Compound C5N17B] , please.
**Result** > 100 µM

----------
# Assay Remarks: in vivo
# Condition Description: male, ICR, mouse, po, 10 mg/kg, AUC0-t, C5N17B+Ritonavir, PO 10 mg/kg, individual mice 1#-3#
Measured Parameter: AUC(0-t) (ng·h/mL)
# unit: ng·h/mL | format: bare number

**Query** Tell me the measured AUC(0-t) of Cc1cncc(C(=O)N2C[C@H]3CC[C@@H](C2)N3[C@H](c2cccc(F)c2)c2cn(CCc3ccsc3)nn2)c1 [Compound C5N17B] , please.
**Result** 9690

----------
# Assay Remarks: In vivo pharmacokinetic study in male ICR mice (compound alone)
# Condition Description: male, ICR, mouse, plasma, po, 10 mg/kg, PO 10 mg/kg, 4 h, individual mice 4#-6#; read-out: plasma concentration
Measured Parameter: concentration at 4 h
Form field: result (number plus unit)

**Query** Tell me the measured concentration at 4 h of Cc1cncc(C(=O)N2C[C@H]3CC[C@@H](C2)N3[C@H](c2cccc(F)c2)c2cn(CCc3ccsc3)nn2)c1 [Compound C5N17B] , please.
**Result** 5.85 ng/mL
